test-target: Recombinant human c-KIT kinase (Homo sapiens (Human), UniProt P10721)
Sequence (P10721 26-976): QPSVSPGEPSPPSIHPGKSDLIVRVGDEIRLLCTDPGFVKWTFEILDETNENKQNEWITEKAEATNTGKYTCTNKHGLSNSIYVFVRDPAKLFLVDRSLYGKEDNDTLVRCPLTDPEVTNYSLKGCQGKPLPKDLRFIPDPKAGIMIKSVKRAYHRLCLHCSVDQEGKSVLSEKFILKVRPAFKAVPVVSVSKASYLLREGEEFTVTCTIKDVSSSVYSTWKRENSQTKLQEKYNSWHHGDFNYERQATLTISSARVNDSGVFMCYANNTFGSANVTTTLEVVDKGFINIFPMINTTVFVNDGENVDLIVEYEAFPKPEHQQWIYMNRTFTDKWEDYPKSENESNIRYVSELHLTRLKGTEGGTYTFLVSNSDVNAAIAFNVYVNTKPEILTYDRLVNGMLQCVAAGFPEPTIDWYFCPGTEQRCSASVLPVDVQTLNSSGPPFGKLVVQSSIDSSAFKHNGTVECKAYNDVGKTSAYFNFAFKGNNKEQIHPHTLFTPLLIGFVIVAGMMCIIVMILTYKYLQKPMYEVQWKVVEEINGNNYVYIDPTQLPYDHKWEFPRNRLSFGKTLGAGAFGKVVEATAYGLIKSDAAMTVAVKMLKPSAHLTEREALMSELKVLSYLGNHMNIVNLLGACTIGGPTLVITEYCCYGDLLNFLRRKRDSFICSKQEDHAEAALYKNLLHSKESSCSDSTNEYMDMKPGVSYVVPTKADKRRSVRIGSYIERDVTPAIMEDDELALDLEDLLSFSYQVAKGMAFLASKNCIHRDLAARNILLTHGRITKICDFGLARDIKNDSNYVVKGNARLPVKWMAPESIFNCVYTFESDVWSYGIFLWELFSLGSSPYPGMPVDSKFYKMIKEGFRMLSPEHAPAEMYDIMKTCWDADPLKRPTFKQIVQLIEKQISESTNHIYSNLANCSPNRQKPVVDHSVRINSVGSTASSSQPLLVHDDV
assay-remarks: c-KIT kinase chemiluminescence assay (ADP-Glo)
condition-details: ATP 50 μM
Description: The c-KIT Kinase Enzyme System (V4498) and ADP-Glo™ Kinase Assay kit (V6930) were purchased from Promega (Madison, WI). DMSO (D2650) was purchased from Sigma-Aldrich (Burlington, MA). […] ADP detection with ADP-Glo™ Kinase Assay: After the kinase reaction incubation, 5 μL of ADP-Glo™ reagent was added to all wells. […] Kinase activity was measured as increase in luminescence at RT in an Envision plate reader equipped with 560 nm filters and operating in endpoint mode. […]
pIC50: −log10 of the molar value.
In this section, each of the molecules is paired with its reported pIC50.
quantity-name: pIC50

C/C=C/c1ccn2ncc(C(=O)Nc3cc(-c4noc([C@H]5C[C@@H]5F)n4)ccc3C)c2c1 | > 7.00
Cc1ccc(-c2noc([C@H]3C[C@@H]3F)n2)cc1NC(=O)c1cnn2ccc(-c3cnc(N(C)C)nc3)cc12 | > 7.00
Cc1ccc(-c2noc([C@H]3C[C@@H]3F)n2)cc1NC(=O)c1cnc2n1C(C)(C)c1ccccc1-2 | 6.00 to 7.00

###

test-target: Recombinant human c-KIT kinase (Homo sapiens (Human), UniProt P10721)
assay-remarks: c-KIT kinase chemiluminescence assay (ADP-Glo)
condition-details: ATP 50 μM
IC50 values, listed per item
quantity-name: IC50

COC(=O)N1CC(c2nc(-c3ccc(C)c(NC(=O)c4cnn5ccc(N6CC7(C6)CC(O)(C(F)F)C7)cc45)c3)no2)C1 [Example 281-53] | < 100 nM
Cc1ncc(-c2ncc(C3CC3)cn2)cc1NC(=O)c1cnc(-c2ccc3c(c2)CC(=O)N3)o1 [Example 361] | 100 to 1000 nM
Cc1ccc(-c2noc([C@H]3C[C@@H]3F)n2)cc1NC(=O)c1cnn2ccc(N3CC(CO)(CCl)C3)cc12 [Example 182] | < 100 nM
Cc1cc(C)c(-c2ccn3ncc(C(=O)Nc4cc(-c5noc([C@H]6C[C@@H]6F)n5)ccc4C)c3c2)cn1 [Example 171-26] | < 100 nM
Cc1ccc(-c2noc([C@H]3C[C@@H]3F)n2)cc1NC(=O)c1cnc(-c2ccc3[nH]c4ccccc4c3c2)o1 [Example 303] | 100 to 1000 nM
C#Cc1ccn2ncc(C(=O)Nc3cc(-c4noc([C@H]5C[C@@H]5F)n4)ccc3C)c2c1 [Example 108] | < 100 nM
Cc1ccc(-c2noc([C@H]3C[C@@H]3F)n2)cc1NC(=O)c1cnn2ccc(N3CC[C@H](NC(=O)OC(C)(C)C)C3)cc12 [Example 193] | 100 to 1000 nM
Cc1ccc(-c2noc([C@H]3C[C@@H]3F)n2)cc1NC(=O)c1cnn2ccc(N3CC[C@@H](NC(=O)OC(C)(C)C)C3)cc12 [Example 192] | 100 to 1000 nM
Cc1ncc(-c2ccc(C3CC3)cn2)cc1NC(=O)c1cnn2ccc(N3CC4(COC4)C3)cc12 [Example 357] | 100 to 1000 nM
Cc1ccc(-c2noc([C@H]3C[C@@H]3F)n2)cc1NC(=O)c1cnc2sccc2c1 [Example 29] | > 1000 nM

###

test-target: Recombinant human c-KIT kinase (Homo sapiens (Human), UniProt P10721)
assay-remarks: c-KIT kinase chemiluminescence assay (ADP-Glo)
condition-details: ATP 50 μM
Parameter IC50: see the listing below.
quantity-name: IC50

Cc1ncc(-c2noc([C@H]3C[C@H](C(F)(F)F)C3)n2)cc1NC(=O)c1cnn2ccc(N3CC4(C3)CC(O)(C(F)F)C4)cc12 | < 100 nM
Cc1ccc(-c2noc([C@H]3C[C@@H]3F)n2)cc1NC(=O)c1cnn2ccc(N3CC(C(=O)N4CC(F)(F)C4)C3)cc12 | < 100 nM
Cc1ccc(-c2noc([C@H]3C[C@@H]3F)n2)cc1NC(=O)c1cnn2ccc(NCC3(CO)COC3)cc12 | < 100 nM
Cc1ncc(-c2noc(C3C[C@@H]3C(F)F)n2)cc1NC(=O)c1cnn2ccc(N3CC4(COC4)C3)cc12 (stereo partly drawn) | 100 to 1000 nM
Cc1ccc(-c2noc([C@H]3C[C@@H]3F)n2)cc1NC(=O)c1cnc2n1C(Cc1ccccc1)c1ccccc1-2 (stereo partly drawn) | > 1000 nM
Cc1ccc(-c2noc([C@H]3C[C@@H]3F)n2)cc1NC(=O)c1cnc(-c2ccc3c(c2)O[C@H](C)CN3)o1 | 100 to 1000 nM
Cc1ccc(-c2noc([C@H]3C[C@@H]3F)n2)cc1NC(=O)c1cnn(-c2cccc(NC(=O)OC(C)(C)C)c2)c1 | > 1000 nM
Cc1ccc(-c2noc(C3CCN(C(=O)[C@H]4C[C@@H]4F)C3)n2)cc1NC(=O)c1cnn2ccc(N3CC4(COC4)C3)cc12 (stereo partly drawn) | 100 to 1000 nM
Cc1ccc(-c2noc([C@H]3C[C@@H]3F)n2)cc1NC(=O)c1cnn2ccc(N3C4CCC3CC(O)C4)cc12 (stereo partly drawn) | < 100 nM
Cc1ccc(-c2noc([C@H]3C[C@@H]3F)n2)cc1NC(=O)c1cnc2cn[nH]c2c1 | > 1000 nM
Cc1ccc(-c2noc([C@H]3C[C@@H]3F)n2)cc1NC(=O)c1cnn2c1CCC2 | > 1000 nM
Cc1ccc(-c2noc([C@H]3C[C@@H]3F)n2)cc1NC(=O)c1cnc2nccn2c1 | > 1000 nM
Cc1ccc(-c2noc([C@H]3C[C@@H]3F)n2)cc1NC(=O)c1cnc2ncsc2c1 | > 1000 nM
Cc1ccc(-c2noc([C@H]3C[C@@H]3F)n2)cc1NC(=O)c1cnn2cc(-c3cn(C45CC(C4)C5)nn3)ccc12 | 100 to 1000 nM
O=C(Nc1cc(-c2noc([C@H]3C[C@@H]3F)n2)ccc1C(F)F)c1cnn2ccc(N3CC4(C3)CC(O)(C(F)F)C4)cc12 | 100 to 1000 nM
Cc1ncc(-c2noc([C@H]3CC3(F)F)n2)cc1NC(=O)c1cnn2ccc(N3CC4(C3)CC(O)(C(F)F)C4)cc12 | 100 to 1000 nM
Cc1ccc(-c2noc([C@H]3C[C@@H]3F)n2)cc1NC(=O)c1cnc(-c2ccc3c(c2)C(C)(C)C(=O)N3)o1 | 100 to 1000 nM
Cc1ccc(-c2noc([C@H]3C[C@@H]3F)n2)cc1NC(=O)c1cnn2ccc(-c3c(C)nc(N4CCC4)nc3C)cc12 | 100 to 1000 nM

###

Listed here: items and their measured EC50.
Tested on: M-07e cells
assay-remarks: M-07e cellular assay (SCF-mediated cell proliferation)
Type: cell-based
condition-details: Homo sapiens, 72 hours, CellTiter Glo
quantity-name: EC50

Cc1ccc(-c2noc([C@H]3C[C@@H]3F)n2)cc1NC(=O)c1cnc(-c2ccc3nc[nH]c3c2)o1 | 100 to 1000 nM
Cc1ccc(-c2ncc(C(F)F)cn2)cc1NC(=O)c1cnn2ccc(N3CC4(COC4)C3)cc12 | < 100 nM
Cc1ccc(-c2nc3n(n2)CCN(C(=O)OC(C)(C)C)C3)cc1NC(=O)c1cnn2ccc(N3CC4(C3)CC(O)(C(F)F)C4)cc12 | 100 to 1000 nM
Cc1ccc(-c2noc(C3CN(C(=O)OC(C)C)C3)n2)cc1NC(=O)c1cnc(-c2ccc3c(c2)CC(=O)N3)o1 | > 1000 nM
Cc1ccc(-c2noc([C@H]3C[C@@H]3F)n2)cc1NC(=O)c1cnn2ccc(N3CCNC[C@@H]3C)cc12 | < 100 nM
Cc1ccc(-c2ncc(C3CC3)cn2)cc1NC(=O)c1cnn2cc(-c3cn(C(F)F)nn3)ccc12 | < 100 nM

###

The reader will find reported pEC50 values listed item by item below.
Test system: M-07e cells
assay-remarks: M-07e cellular assay (SCF-mediated cell proliferation)
Format: cell-based
condition-details: Homo sapiens, 72 hours, CellTiter Glo
pEC50: −log10 of the molar value.
quantity-name: pEC50

Cc1ccc(-c2noc(C3CC4(C3)CN(C(=O)[C@H]3C[C@@H]3F)C4)n2)cc1NC(=O)c1cnn2ccc(N3CC4(C3)CC(O)(C(F)F)C4)cc12 | 6.00 to 7.00
Cc1ccc(-c2noc(N3CCOCC3)n2)cc1NC(=O)c1cnn2ccc(N3CC4(C3)CC(O)(C(F)F)C4)cc12 | > 7.00
Cc1ccc(-c2noc(C3CN(C(=O)[C@H]4C[C@@H]4F)C3)n2)cc1NC(=O)c1cnn2ccc(N3CC4(C3)CC(O)(C(F)F)C4)cc12 | 6.00 to 7.00
Cc1ccc(-c2noc([C@H]3C[C@@H](OC(F)F)C3)n2)cc1NC(=O)c1cnn2cc(-c3cn(C(F)F)nn3)ccc12 | > 7.00
C/C=C/c1ccn2ncc(C(=O)Nc3cc(-c4noc([C@H]5C[C@@H]5F)n4)ccc3C)c2c1 | > 7.00
Cc1c(F)cc(-c2noc([C@H]3C[C@@H]3F)n2)cc1NC(=O)c1cnn2ccc(N3CC4(COC4)C3)cc12 | > 7.00
Cc1ccc(-c2noc(N3CCOCC3)n2)cc1NC(=O)c1cnn2ccc(N3CC4(COC4)C3)cc12 | > 7.00
Cc1ccc(-c2noc([C@H]3C[C@@H]3F)n2)cc1NC(=O)c1cnn2ccc(-n3cc(N)cn3)cc12 | 6.00 to 7.00
Cc1ccc(-c2noc([C@H]3C[C@@H]3F)n2)cc1NC(=O)c1cnn2ccc(-c3nnn(CC(C)(C)O)n3)cc12 | > 7.00
Cc1ccc(-c2noc([C@H]3C[C@@H]3F)n2)cc1NC(=O)c1cnn2cc(F)c(-c3c(C)nn(C(F)F)c3C)cc12 | 6.00 to 7.00
Cc1nccc(-c2ccn3ncc(C(=O)Nc4cc(-c5noc([C@H]6C[C@@H]6F)n5)ccc4C)c3c2)n1 | > 7.00
Cc1ccc(-c2nc([C@H]3C[C@@H]3F)cs2)cc1NC(=O)c1cnn2ccc(N3CC4(COC4)C3)cc12 | > 7.00

Data provenance: patent US20250059174A1
